- assayTarget: T1, recombinant human RANTES (huRANTES, Peprotech) (human, UniProt P13501 24-91)
- T1 sequence: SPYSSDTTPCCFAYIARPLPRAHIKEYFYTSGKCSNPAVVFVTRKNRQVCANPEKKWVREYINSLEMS
- measurementNotes: cell-based or functional assay
We begin with a simple list: items and their reported Chemotaxis IC50 (nM); L1.2 cells expressing hCCR5, 1 nM huRANTES; scFv format.
Could you give me the number in nM? Just the number is fine.

binder	units	endpointResult
1D9 scFv (scFv) QVQLVQSGAEVKKPGASVKVSCKVSGYTLTEFAMHWVRQAPGKGLEWMGGFVPEDGETIYAQKFQGRVTMTEDTSTDTAYMELSSLRSEDTAVYYCATDPLYTPGLEPWGQGTTVTVSSSYVLTQPPSVSVAPGQTARITCGGNNIESKSVHWYQQKPGQAPVLVVYDDSDRPSGIPERFSGSNSGNTATLTISRVEAGDEADYYCQVWDSNTDHWVFGGGTKLTVL	nM	0.82

[in] Item D1 scFv (scFv) EVQLVQSGPEVKKPGATVKISCNVSAETFTDYYIHWVKQAPGRGLEWMGLVDSEEDGETLFAETFRGRVALTADRSTNTAYMELRSLRHDDTAVYYCAAEYGEYGFFQSWGQGTLVTVSSQSVLTQPPSVSGAPGQRVTISCTGSSSNIGADYDVNWYQQLPGTSPKLLIYGDINRPSGVPDRFSASKSGTSASLAITGLQAEDEADYYCQSFDNSLSGSVIFGGGTKLTVL has what recorded Chemotaxis IC50 (nM); L1.2 cells expressing hCCR5, 1 nM huRANTES; scFv format?
[out] 22

[in] What do you have for 2D1 scFv (scFv) QVQLVQSGAEVKKPGASVKVSCKVSGYTLNDFAMHWVRQAPGKGLEWMGGYVPEDGDTIYAQKFQGRVTMTEDTSTDTAYMELSSLRSEDTAVYYCATDPLYSGSLSYWGQGTTVTVSSSYVLTQPPSVSVAPGQTARITCGGNNIESKSVHWYQQKPGQAPVLVVYDDSDRPSGIPERFSGSNSGNTATLTISRVEAGDEADYYCQVWDSNTDHWVFGGGTKVTVL ?
[out] 1.3

[in] How about E10 scFv (scFv) QVQLVESGGGVVQPGRSLRLSCAASGFTFSSYAMHWVRQAPGKGLEWVAVISYDGSNKYYADSVKGRFSISRDNSKNTLYLQMNSLRAEDTAVYYCARETFPHYYYYYMDVWGKGTMVTVSSSYVLTQPPSVSVAPGQTARISCGGGNFDDEGVHWYQQTPGQAPVLVVYDDTGRPSGIPERFSGSSSGNTATLTISRVEAGDEADYYCQAWDSSNDHPVFGGGTQLTVL ?
[out] 9.4

[in] Check 7B5 scFv (scFv) QVQLVQSGAEVKKPGASVKVSCKVSGYTLNDFAMHWVRQAPGKGLEWMGGYVPEDGDTIYAQKFQGRVTMTEDTSTDTAYMELSSLRSEDTAVYYCATDPLYSGSLSYWGQGTTVTVSSSYVLTQPPSVSVAPGQTARITCGGNNIESKSVHWYQQKPGQAPVLVVYDDSDRPSGIPERFSGSNSGNTATLTISRVEAGDEADYYCQVWDSGPVWWIFGGGTKLTVL too.
[out] 1.6

[in] Next binder: 1E4 scFv (scFv) QVQLVQSGAEVKKPGASVKVSCKVSGYTLTEFAMHWVRQAPGKGLEWMGGFVPEDGETIYAQKFQGRVTMTEDTSTDTAYMELSSLRSEDTAVYYCATDPLYEGSFSVWGQGTTVTVSSSYVLTQPPSVSVAPGQTARITCGGNNIESKSVHWYQQKPGQAPVLVVYDDSDRPSGIPERFSGSNSGNTATLTISRVEAGDEADYYCQVWDSNTDHWVFGGGTKLTVL
[out] 1.25
